Biological target: MEK1 activated ERK1 (Homo sapiens (Human), UniProt P27361)
Sequence (P27361 whole entry): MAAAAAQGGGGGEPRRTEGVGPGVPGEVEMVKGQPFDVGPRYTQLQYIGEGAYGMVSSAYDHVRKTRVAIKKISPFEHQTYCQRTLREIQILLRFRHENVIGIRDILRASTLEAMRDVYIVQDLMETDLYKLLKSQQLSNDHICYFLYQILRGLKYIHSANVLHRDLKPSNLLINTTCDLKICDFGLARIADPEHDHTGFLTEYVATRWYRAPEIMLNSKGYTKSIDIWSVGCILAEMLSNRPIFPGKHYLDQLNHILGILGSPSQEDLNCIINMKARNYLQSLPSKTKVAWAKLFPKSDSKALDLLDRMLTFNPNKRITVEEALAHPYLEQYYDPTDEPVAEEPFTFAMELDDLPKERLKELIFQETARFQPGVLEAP
Assay: Omnia continuous-read kinase assay for potency against MEK1 activated ERK1
Assay type: biochemical
Details: read-out: ERK1 Omnia WT ATP KM IC50
Consider the following compounds; for each one, report its IC50.

Example entries begin here.
{"columns": ["COMPOUND", "RECORDED_MEASUREMENT"],
 "data": [
  ["C=CC(=O)Nc1cc(F)ccc1Nc1nc(Nc2ccc(F)cc2C)ncc1Cl [Compound I-212]", "< 100 nM"],
  ["C=CC(=O)Nc1cc(OC)ccc1Oc1nc(Nc2ccc(N3CCC[C@@H]3CO)cc2OC)ncc1C(N)=O [Compound I-264]", "501 to 999 nM"],
  ["C=C(C)S(=O)(=O)Nc1cc(F)ccc1Nc1nc(Nc2cc(C(C)=O)ccc2C)ncc1Cl [Compound I-243]", "< 100 nM"]
]}

Entry C=CC(=O)Nc1cc(C)ccc1Nc1nc(N[C@H]2CCCN(C(C)=O)C2)ncc1Cl [Compound I-139] has what IC50?
< 100 nM

====

Biological target: MEK1 activated ERK1 (Homo sapiens (Human), UniProt P27361)
Experiment: Omnia continuous-read kinase assay for potency against MEK1 activated ERK1
Type: biochemical
Details: MEK1 activated ERK1, WT, ATP at KM
Source text: Omnia Assay Protocol for Potency Assessment Against MEK1 Activated ERK1: The protocol below describes continuous-read kinase assays to measure potency of compounds against activated ERK1 enzyme. The mechanics of the assay platform are best described by the vendor (Invitrogen, Carlsbad, Calif.) on their website at the following URL: invitrogen.com/site/us/en/home.html. […]
pIC50: −log10 of the molar value.
EXPERIMENTAL_READOUT: pIC50

Example entries begin here.
{"columns": ["COMPOUND", "TESTED_SYSTEM", "RECORDED_MEASUREMENT"],
 "data": [
  ["C=CC(=O)Nc1ccc(C)cc1Nc1nc(N[C@H]2CCCN(C(=O)CO)C2)ncc1C(F)(F)F", "MEK1 activated ERK1 (Homo sapiens (Human), UniProt P27361)", "> 7.00"],
  ["C=CC(=O)Nc1cc(OC)ccc1Oc1nc(Nc2ccc(N3CCC[C@H]3C(N)=O)cc2OC)ncc1C(N)=O", "MEK1 activated ERK1 (Homo sapiens (Human), UniProt P27361)", "< 6.00"],
  ["C=CC(=O)Nc1cc(C)ccc1Nc1nc(NC2CCC(=O)CC2)ncc1C(F)(F)F", "MEK1 activated ERK1 (Homo sapiens (Human), UniProt P27361)", "> 7.00"],
  ["C=CC(=O)Nc1ccccc1Nc1nc(Nc2ccc(OCCOC)cc2OC)ncc1Cl", "MEK1 activated ERK1 (Homo sapiens (Human), UniProt P27361)", "< 6.00"],
  ["C=CC(=O)Nc1cc(OC)ccc1Nc1nc(Nc2ccc(N3CCNCC3)cc2OC)ncc1Cl", "MEK1 activated ERK1 (Homo sapiens (Human), UniProt P27361)", "< 6.00"],
  ["C=CC(=O)Nc1cc(C)ccc1Nc1nc(N[C@H]2CCCN(C(=O)CO)C2)ncc1Cl", "MEK1 activated ERK1 (Homo sapiens (Human), UniProt P27361)", "> 7.00"],
  ["CC(C)=CC(=O)c1ccccc1Oc1nc(Nc2ccc(F)cc2C)ncc1Cl", "MEK1 activated ERK1 (Homo sapiens (Human), UniProt P27361)", "< 6.00"],
  ["C=CC(=O)Nc1ccccc1Nc1nc(N[C@H]2CCC[C@@H](C(N)=O)C2)ncc1Cl", "MEK1 activated ERK1 (Homo sapiens (Human), UniProt P27361)", "> 7.00"],
  ["C=CC(=O)Nc1cc(OC)ccc1Nc1nc(Nc2cc(OC)nc(N3CCN(C)CC3)c2)ncc1C(F)(F)F", "MEK1 activated ERK1 (Homo sapiens (Human), UniProt P27361)", "> 7.00"],
  ["CC(C)=CC(=O)c1ccccc1Nc1nc(Nc2cc(C(N)=O)ccc2C)ncc1Cl", "MEK1 activated ERK1 (Homo sapiens (Human), UniProt P27361)", "< 6.00"]
]}

Please go through the list and note pIC50 for each compound.
1. C#CCOc1cc(C)c(Nc2ncc(C(F)(F)F)c(Nc3ccc(C)cc3NC(=O)C=C)n2)cc1C(N)=O
2. C=CC(=O)Nc1ccccc1Nc1nc(N[C@@H]2CCC[C@H](C(N)=O)C2)ncc1Cl [Compound I-119]
3. CCC(=O)Nc1ccccc1Nc1nc(Nc2ccc3c(c2OC)CCCC(=O)N3CC)ncc1Cl

1. < 6.00
2. > 7.00
3. < 6.00

Please go through the list and note pIC50 for each compound.
1. CN(C)CCC(=O)Nc1ccccc1Nc1nc(N[C@H]2CCCN(C(=O)CO)C2)ncc1C(F)(F)F
2. C=CC(=O)Nc1ccccc1Nc1nc(Nc2cc(OC)ncc2C)ncc1C(F)(F)F
3. C=CC(=O)Nc1cc(OC)ccc1Nc1nc(Nc2ccc(N3CCC[C@H]3CO)cc2OC)ncc1Cl

< 6.00
6.30 to 7.00
< 6.00

Each recorded value in this set is attributed to patent US9796700B2.
